Reported Ki for target or system Translocator protein (Rattus norvegicus, UniProt P16257), by entry.
Kindly answer with a numeric value in nM, unit omitted.

Some entries whose results are on file:
structure_string=O=C(NCCNc1ccc([N+](=O)[O-])c2[n-][o+]nc12)C(=O)c1c(-c2ccc(F)cc2)[nH]c2ccccc12 value_type=Ki units=nM value_reported=835
structure_string=O=C(NCCCCNc1ccc([N+](=O)[O-])c2nonc12)C(=O)c1c(-c2ccc(F)cc2)[nH]c2ccccc12 value_type=Ki units=nM value_reported=23
structure_string=O=C(NCCCCCCNc1ccc([N+](=O)[O-])c2nonc12)C(=O)c1c(-c2ccc(F)cc2)[nH]c2ccccc12 value_type=Ki units=nM value_reported=12
structure_string=O=C(NCCCCCCNc1ccc([N+](=O)[O-])c2[n-][o+]nc12)C(=O)c1c(-c2ccccc2)[nH]c2ccccc12 value_type=Ki units=nM value_reported=17
structure_string=CCCN(CCC)C(=O)Cc1c(-c2ccc(Cl)cc2)nc2ccc(Cl)cn12 value_type=Ki units=nM value_reported=0.5

Incoming: Short answer please: Ki, Translocator protein (Rattus norvegicus, UniProt P16257), entry "O=C(NCCNc1ccc([N+](=O)[O-])c2nonc12)C(=O)c1c(-c2ccccc2)[nH]c2ccccc12"
Outgoing: 994
